assay: qHTS of pediatric cancer cell lines to identify multiple opportunities for drug repurposing: Confirmatory screen for DAOY cells (AID 1347114); conditions: DAOY medulloblastoma cells viability, cytotoxicity qHTS; series mostly up to 45.9 µM; further: nearly all actives have a fitted effect of over 65% in size
Results filed as inconclusive are left out. Active and inactive are the calls of the source. The call rests on the fitted dose curve; in most records, active means well fitted cell-killing curve with a large enough effect; inconclusive means small, poorly fitted or top-dose-only effect; inactive means no such curve, though single readings can be large or run the other way.
// classify into active, inactive

C[C@H](NCc1ccc2c(c1)nc(NC(=O)c1ccc(-c3cn[nH]c3)s1)n2CCc1ccccc1)C(C)(C)C | active
CN[C@H]1[C@@H](O)[C@@H]2O[C@@H]3O[C@H](C)CC(=O)[C@]3(O)O[C@@H]2[C@@H](NC)[C@H]1O | inactive
COc1cc([C@@H]2c3cc4c(cc3[C@H](O)[C@H]3COC(=O)[C@@H]23)OCO4)cc(OC)c1OC | active
COc1ccc(S(=O)(=O)Nc2cccnc2Nc2ccc(O)cc2)cc1 | active
Cc1[nH]c(C=C2C(=O)Nc3ccccc32)c(C)c1CCC(=O)O | inactive
CCCCC(=O)O[C@]1(C(=O)CO)[C@@H](C)C[C@H]2[C@@H]3CCC4=CC(=O)C=C[C@]4(C)[C@@]3(F)[C@@H](O)C[C@@]21C | inactive

Problem: Tell me the recorded outcome of this test for CC[C@@]1([C@@H]2O[C@@H]([C@H]3O[C@@](O)(CO)[C@H](C)C[C@H]3C)C[C@H]2C)CC[C@H]([C@]2(C)CC[C@]3(C[C@H](O)[C@@H](C)[C@@H]([C@@H](C)[C@@H](OC)[C@H](C)C(=O)O)O3)O2)O1 .
Result: active

---

assay: qHTS drug screen for cell cycle checkpoint inhibitors in PARPi-resistant BRCA-mutant ovarian cancer cell lines. (AID 1963452); conditions: PEO1/OlaR viability, CellTiter-Glo luminescence, 96 h; measured here: PEO4 Z-AUC; stronger effect = lower value
READOUT_NAME: Z-AUC
Just the number, please.

Some compounds with known Z-AUC results, for comparison:
NC1=N[C@H]2[C@H](CS[C@H]2CCCCC(=O)O)N1 | 0.00068
Cc1cc(O)c2c(c1)C(=O)c1cccc(O)c1C2=O | -0.281
CCCc1nc(C(C)(C)O)c(C(=O)O)n1Cc1ccc(-c2ccccc2-c2nn[nH]n2)cc1 | 1.03
CC(C)C[C@H](NC(=O)[C@@H](NC(=O)c1cccc(-c2ccccc2)n1)[C@@H](C)O)B(O)O | -3.51
O=C1NCCc2[nH]c(-c3ccncc3)cc21 | -1.61

Problem: Entry O=C(O)CCCCCC(=O)NN=C1CCCC1 needs its Z-AUC filled in; supply it.
Result: 1.15

---

assay: qHTS for identification of novel therapeutic agents for treatment of microphthalmiaassociated transcription factor (MiT) renal cell carcinoma (RCC) (AID 1963991); conditions: TFE3-RCC viability, CellTiter-Glo, 48 h; measured here: UOK124 Z-AUC; stronger effect = lower value;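 further: curves scaled with 100% = DMSO viability and 0% = empty wells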
Results filed as inconclusive are left out.
READOUT_NAME: z-score
A bare number is all that is needed in reply.

N#CC(=C(O)c1ccc(Cl)cc1Cl)c1nc2cc(Cl)ccc2c(=O)[nH]1 | 1.29

Problem: Tell us which z-score value is on record for N[C@H]1CN(c2c(F)cc3c(=O)c(C(=O)O)cn(C4C[C@@H]4F)c3c2Cl)CC12CC2 (some centres undefined)
Result: 1.4

Problem: Using known records, supply z-score for COc1ccc(Nc2cc(-c3cnc(N)nc3)nc(N3CCOCC3)n2)cn1
Result: -2.53

Problem: Name the recorded z-score of the item CON=C(C(=O)N[C@@H]1C(=O)N2C(C(=O)O)=C(Cn3ccc(=N)n3CCO)CS[C@H]12)c1csc(N)n1 in your answer.
Result: 0.0348

Problem: Report measured z-score; entry is OCCN1C[C@H](O)[C@@H](O)[C@H](O)[C@@H]1CO
Result: 0.522

Problem: Give the value of z-score reported for the following: CCN(CC)CCNC(=O)c1c(C)[nH]c(C=C2C(=O)Nc3ccc(F)cc32)c1C
Result: -1.68

Problem: Please report the measured z-score for CS(=O)(=O)N1CCc2c(-c3cnc(N)nc3)nc(N3CCOCC3)nc21
Result: -1.41

Problem: Recall and state the measured z-score for NC(=O)c1ncn([C@@H]2O[C@H](CO)[C@@H](O)[C@@H]2O)c1O .
Result: 0.298

Problem: Determine from records and report z-score for Cc1cc(Nc2ncc3c(n2)N(C)C(=O)N(c2cc(NC(=O)c4cccc(C(F)(F)F)c4)ccc2C)C3)n(C)n1
Result: -1.08
